Below, each of the variants is paired with its reported aptazyme ON/OFF ratio value.
B1: Pistol ribozyme (parent)
chain: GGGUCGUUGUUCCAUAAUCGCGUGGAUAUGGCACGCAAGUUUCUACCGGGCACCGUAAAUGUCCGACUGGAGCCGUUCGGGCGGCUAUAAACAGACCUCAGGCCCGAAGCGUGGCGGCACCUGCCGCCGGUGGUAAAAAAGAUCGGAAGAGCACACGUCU

Variants of: B1
test.name: aptazyme ON/OFF ratio, guanine; higher = stronger switching; co-transcriptional cleavage with and without guanine

Recorded results for 5 variants are shown here.
[
  {
    "sequence.variant": "U7A G9C U11C C12U C13A",
    "aptazyme ON/OFF ratio": 1.04
  },
  {
    "sequence.variant": "U7A U8A G9U U10A U11G C12A",
    "aptazyme ON/OFF ratio": 1.07
  },
  {
    "sequence.variant": "U7A U8C G9A U10G U11C C13U",
    "aptazyme ON/OFF ratio": 1.05
  },
  {
    "sequence.variant": "U7G U8G G9C U10A C12U C13U",
    "aptazyme ON/OFF ratio": 1.04
  },
  {
    "sequence.variant": "U7G U8A G9C U11C C12U C13G",
    "aptazyme ON/OFF ratio": 1.08
  }
]

# input # lookup: aptazyme ON/OFF ratio of U7A G9A U10A U11C C13A
# output 1.02

# input For U7C U8A U10G C12U C13A , what is its reported aptazyme ON/OFF ratio?
# output 1.34

# input What does the data say about its aptazyme ON/OFF ratio? Entry: U7G U8G G9C U10C U11A C12A C13U
# output 1.12

# input # get_value(readout='aptazyme ON/OFF ratio', item= U7G U8G G9U U11A C13G )
# output 1.09

# input Which aptazyme ON/OFF ratio is listed for U7C U8A U10G U11C C12U ?
# output 1.09

# input Return reported aptazyme ON/OFF ratio; argument: U8G G9A U10C U11A C13U
# output 1.08
